target: αvβ3 (Homo sapiens, UniProt P05106+P06756); assay: Inhibition of αvβ3-mediated binding in a specific cell adhesion assay; assay type: cell-based; details: post-ester hydrolysis to make the free acid; at 100 nM
Sequence (P06756 31-889 limits assumed): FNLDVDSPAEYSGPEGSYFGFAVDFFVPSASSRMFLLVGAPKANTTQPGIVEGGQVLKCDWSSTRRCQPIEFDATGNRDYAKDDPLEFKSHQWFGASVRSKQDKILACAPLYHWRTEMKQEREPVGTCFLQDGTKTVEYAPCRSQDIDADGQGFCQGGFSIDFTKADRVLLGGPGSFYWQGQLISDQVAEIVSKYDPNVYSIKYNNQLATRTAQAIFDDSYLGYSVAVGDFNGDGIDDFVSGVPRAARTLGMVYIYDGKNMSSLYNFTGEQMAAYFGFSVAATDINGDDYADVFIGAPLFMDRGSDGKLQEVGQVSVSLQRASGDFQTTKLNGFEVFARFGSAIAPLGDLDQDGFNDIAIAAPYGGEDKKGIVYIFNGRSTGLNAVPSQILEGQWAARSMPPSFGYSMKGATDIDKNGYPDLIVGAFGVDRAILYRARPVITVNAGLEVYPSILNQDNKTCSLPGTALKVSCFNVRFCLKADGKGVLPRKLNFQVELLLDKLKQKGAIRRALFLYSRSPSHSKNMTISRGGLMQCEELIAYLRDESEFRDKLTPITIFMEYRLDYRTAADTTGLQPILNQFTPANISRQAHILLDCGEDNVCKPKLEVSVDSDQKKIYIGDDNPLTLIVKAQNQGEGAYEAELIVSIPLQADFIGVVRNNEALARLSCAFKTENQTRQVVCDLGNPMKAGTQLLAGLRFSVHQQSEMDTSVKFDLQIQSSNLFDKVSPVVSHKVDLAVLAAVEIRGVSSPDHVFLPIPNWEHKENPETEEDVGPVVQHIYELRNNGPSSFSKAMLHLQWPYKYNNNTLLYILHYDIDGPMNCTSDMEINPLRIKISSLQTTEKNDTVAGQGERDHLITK
Sequence (P06756 891-1048 partner limits assumed): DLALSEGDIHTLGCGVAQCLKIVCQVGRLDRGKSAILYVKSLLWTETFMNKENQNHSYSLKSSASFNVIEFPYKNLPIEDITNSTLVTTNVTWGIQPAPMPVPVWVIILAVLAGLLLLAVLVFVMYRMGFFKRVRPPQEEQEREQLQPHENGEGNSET
Sequence (P05106 27-788): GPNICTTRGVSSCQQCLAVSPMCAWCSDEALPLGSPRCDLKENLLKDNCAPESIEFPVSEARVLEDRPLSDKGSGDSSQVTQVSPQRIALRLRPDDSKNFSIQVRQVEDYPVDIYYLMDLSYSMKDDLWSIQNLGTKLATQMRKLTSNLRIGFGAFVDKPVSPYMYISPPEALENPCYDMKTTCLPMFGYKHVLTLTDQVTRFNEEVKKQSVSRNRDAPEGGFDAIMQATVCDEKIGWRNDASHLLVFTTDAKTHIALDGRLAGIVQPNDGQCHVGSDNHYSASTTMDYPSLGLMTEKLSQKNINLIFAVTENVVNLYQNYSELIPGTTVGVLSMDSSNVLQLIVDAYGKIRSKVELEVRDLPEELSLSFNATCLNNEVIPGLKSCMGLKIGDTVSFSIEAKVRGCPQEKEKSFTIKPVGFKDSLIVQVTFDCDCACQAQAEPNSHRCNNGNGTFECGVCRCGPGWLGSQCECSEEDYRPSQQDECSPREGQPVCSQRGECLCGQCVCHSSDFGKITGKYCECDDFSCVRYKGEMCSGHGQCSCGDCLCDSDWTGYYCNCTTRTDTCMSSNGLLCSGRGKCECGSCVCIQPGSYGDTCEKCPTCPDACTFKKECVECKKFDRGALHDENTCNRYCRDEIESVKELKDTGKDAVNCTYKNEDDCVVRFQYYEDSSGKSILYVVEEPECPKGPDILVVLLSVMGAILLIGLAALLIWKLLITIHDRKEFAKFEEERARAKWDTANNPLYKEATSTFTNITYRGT
The entries below come with measured inhibition at 0.1 µM values attached.
# number only, unit % dropped from output

INPUT: Consider the molecule shown here: CCN(CC)CCCOc1c(I)cc(Oc2c(I)cc(CC(=O)OC)cc2I)cc1I [compound 37] What is its recorded inhibition at 0.1 µM?
OUTPUT: 100

INPUT: Consider the molecule shown here: O=C(O)Cc1cc(I)c(Oc2cc(I)c(OCCCNCc3cccnc3)c(I)c2)c(I)c1 [compound 34] What is its recorded inhibition at 0.1 µM?
OUTPUT: 68

INPUT: Consider the molecule shown here: O=C(O)Cc1cc(I)c(Oc2cc(I)c(OCCCN3CCSCC3)c(I)c2)c(I)c1 [compound 36] What is its recorded inhibition at 0.1 µM?
OUTPUT: 93

***
INPUT: Consider the molecule shown here: NCCCOc1c(I)cc(Oc2c(I)cc(CC(=O)O)cc2I)cc1I [compound 32] What is its recorded inhibition at 0.1 µM?
OUTPUT: 100
